- study.target: T1, human SIRPβ isoform 1 (human, UniProt O00241 30-148)
- T1 construct: also called Beta; Human SIRPb
- T1 sequence (O00241 30-148 limits assumed): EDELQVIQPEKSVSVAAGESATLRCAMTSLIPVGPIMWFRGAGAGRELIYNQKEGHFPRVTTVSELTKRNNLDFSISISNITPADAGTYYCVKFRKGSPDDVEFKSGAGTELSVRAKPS
- assay.overview: SPR, antibody on GLC chip
Reported values of pKd for individual entries
Convention used: pKd is expressed as -log10 of the molar concentration.

These solved cases illustrate the format of a correct answer.
[
  {
    "binder": "antibody 119 (antibody, V domains shown, also called AB119; S119) VH: DVQLLESGGGVVQPGGSLRLSCAASGFSFSNFAMTWVRQAPGEGLEWVSTIGSGDTYYADSVKGRFTISRDNSKNTLYLQMNSLRAEDTAVYYCAKDSTVSWSGDFFDYWGLGTLVTVSS VL: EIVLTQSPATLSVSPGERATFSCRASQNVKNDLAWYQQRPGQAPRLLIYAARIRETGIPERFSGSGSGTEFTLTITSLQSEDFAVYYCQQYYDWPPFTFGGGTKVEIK",
    "observed.measurement": 9.47
  },
  {
    "binder": "antibody 135 variant, light chain Mut / heavy chain Mut (antibody, V domains shown) VH: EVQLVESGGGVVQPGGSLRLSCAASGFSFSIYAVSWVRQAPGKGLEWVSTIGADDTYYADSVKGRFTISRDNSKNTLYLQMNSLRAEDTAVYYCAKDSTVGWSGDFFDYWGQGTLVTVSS VL: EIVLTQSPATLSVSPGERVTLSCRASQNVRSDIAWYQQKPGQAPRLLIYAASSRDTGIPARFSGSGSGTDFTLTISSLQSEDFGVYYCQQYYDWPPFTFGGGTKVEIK",
    "observed.measurement": 9.73
  }
]

Query :: So what's the measured pKd for this one? antibody 119 variant, light chain Mut / heavy chain Mut (antibody, V domains shown) VH: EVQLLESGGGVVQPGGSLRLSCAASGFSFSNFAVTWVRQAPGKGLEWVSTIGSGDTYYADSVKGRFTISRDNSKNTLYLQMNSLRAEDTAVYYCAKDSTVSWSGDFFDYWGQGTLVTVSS VL: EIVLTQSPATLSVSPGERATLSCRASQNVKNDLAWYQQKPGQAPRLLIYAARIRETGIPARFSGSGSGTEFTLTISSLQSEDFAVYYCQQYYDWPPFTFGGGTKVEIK
Result :: 9.34
